Recorded values, source patent US20130266574A1.

// reported Kd for each item listed
- MEASUREMENT TARGET: T1, amino acid residues 26-148 of human ANGPTL4 fused in-line to mouse IgG2a (hANGPTL4-mFc) (human)
- T1 construct: contains the N-terminal coiled-coil region
- T1 chain: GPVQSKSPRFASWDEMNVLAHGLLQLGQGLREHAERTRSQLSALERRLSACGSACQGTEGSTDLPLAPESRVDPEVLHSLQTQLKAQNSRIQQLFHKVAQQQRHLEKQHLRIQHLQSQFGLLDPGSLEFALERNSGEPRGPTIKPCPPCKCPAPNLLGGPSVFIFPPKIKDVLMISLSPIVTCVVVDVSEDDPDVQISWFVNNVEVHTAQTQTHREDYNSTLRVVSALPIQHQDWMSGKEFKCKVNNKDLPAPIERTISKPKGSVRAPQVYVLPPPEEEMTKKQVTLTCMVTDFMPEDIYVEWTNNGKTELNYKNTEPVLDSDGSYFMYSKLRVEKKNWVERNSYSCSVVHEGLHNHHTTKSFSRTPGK
- EXPERIMENT: SPR (Biacore T100), hANGPTL4-mFc captured by anti-mouse IgG, antibody injected, 37° C.
Write the answer as a number in nM, unit excluded.

H1H257P (antibody, V domains shown, Fully human antibody; the H1H prefix stands for human IgG1 (said outright only for H1H268P and H1H284P)) VH: EVQLVESGGGLVQPGGSLRLSCAASGFTFSSYDMHWVRQVAGKGLEWVSAIGTAGDTYYPVSVKGRFTISRENAKNSLYLHMNSLRAGDTAVYFCARGDSRNYYVGDYFDYWGQGTLVTVSS VL: DIQMTQSPSTLSASVGDRVTITCRASQSISRWLAWYQQKPGKAPKVLIYQASNLESGVPSRFSGSGSGTEFTLTISSLQPDDFATYYCQQYDSYSRAFGRGTKVEIK ... 0.238

[Q] I have this binder here, H1H653P (antibody, V domains shown, Fully human antibody, H1H prefix (human IgG1)) VH: QVQLVESGGGVVQPGRSLRLSCVASGFTFSSYGMHWVRQAPGKGLEWMAVIWYDGSNKYFADSVKDRFTISRDNSKNTLYLQMNTLRPDDTAVYYCVKADAPLLIYGVDVWGQGTTVTVS VL: DIQMTQSPSSLSASVGDRVTITCRASQGIRNDLGWYQEKPGKAPKRLIYFASSLQSGVPSRFSGSGSGTEFTLTISSLQPEDFATYYCLQHNSYPYTFGQGTKLEIK , and I need its recorded Kd.
[A] 2.13
